Origin of measurements: ChEMBL document CHEMBL3286287

# assayExplanation: Selectivity ratio of Ki for human dopamine D2 receptor to Ki for rat dopamine D4 receptor
Criterion: Ratio Ki strictly less than 50. Met: Criterion met. Not met: Criterion not met.

[
  {
    "chemicalStructure": "Cc1ccc(N2CCN(CCCSc3ccc(F)cc3)CC2)nc1",
    "class": "Criterion not met"
  },
  {
    "chemicalStructure": "Fc1ccc(OCCCN2CCC(c3ccc(Cl)cc3)CC2)cc1",
    "class": "Criterion met"
  },
  {
    "chemicalStructure": "Clc1ccc(N2CCCN(CCCc3cc4ccccc4o3)CC2)cc1",
    "class": "Criterion met"
  },
  {
    "chemicalStructure": "Fc1ccc(SCCCN2CCN(c3ccccn3)CC2)cc1",
    "class": "Criterion met"
  }
]

Then there is this molecule:
hey, is Ratio Ki for Clc1ccc(N2CCN(CCCCc3nc4ccccc4s3)CC2)cc1 lower than 50 or not?
Criterion not met
